Test system: UACC-257 melanoma
Assay: NCI-60 one-dose screen, 48 h
Details: 10 µM unless noted
This is part of a sample that, as a whole, favours compounds with a hit. Of some 83,000 tested, about 20% had one in any assay. Activity calls are given as the source filed them. Rule for the calls: active = growth percent below 10; inactive = the rest.
Outcome codes: active, inactive

compound="CN1CC(c2ccccc2)C(C(=O)c2ccc(Br)cc2)C12C(=O)Nc1ccccc12 (centres undefined)" class_name=inactive
compound=CCN(CC)CCCNc1cc(OC)cc2cccnc12 class_name=inactive
compound="CCOC(=O)C1=C(c2ccccc2)N=C2N(c3ccccc3)N=C(C(C)=O)N2C1c1ccc(Br)cc1 (centres undefined)" class_name=inactive
compound=CCOc1cc(\C=N/N=C(N)/C(N)=N\N=C/c2ccc(O)c(OCC)c2)ccc1O class_name=inactive
compound=O=C(Nc1ccccc1CNc1nc(Nc2ccc(OCCN3CCCC3)cc2)ncc1Cl)NC1CCCCC1 class_name=inactive
compound=Nc1cc(-c2ccc(Cl)cc2)nn1-c1nc(-c2ccc(Br)cc2)cs1 class_name=inactive
compound=O=C(CSc1nnc(-c2cc(-c3ccc(Cl)cc3)nc3ccccc23)n1-c1ccccc1)Nc1ccc(Cl)cc1 class_name=inactive
compound=Cc1cc(C)n(C(=O)CSc2nc3sc4c(c3c(=O)n2-c2ccccc2)CCCCC4)n1 class_name=inactive
compound=O=c1c(/C=C/c2c(O)ccc3ccccc23)nnc2sc(-c3cccc([N+](=O)[O-])c3)nn12 class_name=inactive
compound=COc1ccc(-c2ccc(-c3ccc(C(=N)N)o3)o2)cc1 class_name=inactive
compound=O=C(Nc1cccc2c1C(=O)c1cccc(NC(=O)c3ccc(C(=O)Nc4cccc5c4C(=O)c4cccc(NC(=O)c6ccccc6)c4C5=O)cc3)c1C2=O)c1ccccc1 class_name=inactive
compound=C=CCn1c(SCC(=O)Nc2ccc(C(=O)/C=C/c3ccc(Cl)cc3)cc2)nnc1-c1ccc(Cl)c(Cl)c1 class_name=inactive
compound=CN1CCN(CC(=O)N(C)c2ccc(N=C(c3ccccc3)c3c(O)[nH]c4ccc([N+](=O)[O-])cc34)cc2)CC1 class_name=inactive
compound="Cc1[nH]c(C(=O)Nc2ccccc2OC2CCNC2)c(Cl)c1Cl (centres undefined)" class_name=inactive
compound=Cn1ncc(CC(=O)O)c1-n1nnc2cc(Cl)ccc2c1=O class_name=inactive
compound=N#Cc1c(-c2ccc(Cl)cc2)nc(NN=Cc2cccc(Cl)c2)nc1N1CCOCC1 class_name=inactive
compound=C#Cc1cccc(Nc2ncnc3ccc(-c4cnc(Cl)c(NS(C)(=O)=O)c4)cc23)c1 class_name=active
compound=Cc1cc(N2CCOCC2)nc(N(CCCNc2ccnc3cc(Cl)ccc23)Cc2ccc3c(c2)OCO3)n1 class_name=active
compound="CC1OC(C(=O)N2CCN(CCO)CC2)CC1COC1CCCCC1 (centres undefined)" class_name=inactive
